test system: DeltatarO mutant; test: S. aureus survival, RN4220 and DeltatarO strains – OD600, teichoic acid synthesis inhibitors, primary screen (AID 463173); conditions: S. aureus RN4220 wild type/DeltatarO growth, OD600, 18 h, stronger effect = lower value, screened at 18.75 µg/mL (by protocol)
The campaign covered roughly 52,000 compounds. About 4,300 (8.3%) were called active. The full list was thinned out, with actives kept by preference.
Assay Metric: survival (%)
Lab book: enter the figure in %, no units written.

molecule=CN(C)CCNC(=O)Cn1nc(N2CCN(c3ccccc3)CC2)ccc1=O assay_metric=survival measured_result=86

**Q:** Read the entry "COc1ccc(NC(=O)c2oc3ccccc3c2NC(=O)C23CC4CC(CC(C4)C2)C3)c(OC)c1" and write its reported survival.
**A:** 67

**Q:** Read the entry "COc1ccccc1NC(=O)CN1C(=O)CSc2ccc(S(=O)(=O)N3CCCC3)cc21" and write its reported survival.
**A:** 99

**Q:** Read the entry COc1ccc(Br)cc1CNC(=O)C1COc2ccccc2C1 (stereo unspecified) and write its reported survival.
**A:** 49

**Q:** Read the entry "COc1ccc(CCCN=C(N)N)cc1Cl" and write its reported survival.
**A:** 105

**Q:** Read the entry "O=C(Cn1c(-c2cccs2)cc2cc(F)ccc21)NCCCN1CCN(c2ccccc2F)CC1" and write its reported survival.
**A:** 67

###

tested on: DeltatarO mutant; experiment: S. aureus survival, RN4220 and DeltatarO strains – OD600, teichoic acid synthesis inhibitors, primary screen (AID 463173); details: S. aureus RN4220 wild type/DeltatarO growth, OD600, 18 h, screened at 18.75 µg/mL (by protocol)
Out of some 52,000 compounds screened, about 4,300 (8.3%) were called active. Cut-off read from the data, not from the text of the source: active = survival mostly below about 52% (no sharp cut-off); inactive = mostly above about 56%. The entries come from a sample that favours actives as a whole.
Outcome (select one): active, inactive

**Q:** Short answer needed: outcome of this test for "CCOC(=O)c1noc2nc(C)n(Cc3cccc(C#N)c3)c(=O)c12" ?
**A:** inactive

**Q:** Short answer needed: outcome of this test for O=C(Nc1ccc(C(F)(F)F)cc1)C1CCC(CNS(=O)(=O)c2cccc3nsnc23)CC1 (stereo not drawn) ?
**A:** inactive

**Q:** Short answer needed: outcome of this test for "CCN(CC)c1cc(C)c2cc(NC(=O)c3cccc(OC)c3)ccc2n1" ?
**A:** inactive

**Q:** Short answer needed: outcome of this test for "Cn1c(=O)c2c(nc(NCCCCO)n2Cc2ccccc2Cl)n(C)c1=O" ?
**A:** inactive

**Q:** Short answer needed: outcome of this test for "O=C(c1cc(-c2cccc(Cl)c2)on1)N1CCCCC1" ?
**A:** active

**Q:** Short answer needed: outcome of this test for "O=C(NCCc1ccccc1)c1cc(-c2cccc(Cl)c2)on1" ?
**A:** inactive

**Q:** Short answer needed: outcome of this test for "CCCCCC(=O)Nc1ccc(NC(=O)c2cc3ccccc3o2)c(OC)c1" ?
**A:** inactive

**Q:** Short answer needed: outcome of this test for "Cn1c(=O)c2c(nc(N3CCOCC3)n2Cc2ccccc2Cl)n(C)c1=O" ?
**A:** active

**Q:** Short answer needed: outcome of this test for "O=C(CN1C(=O)COc2ccc(S(=O)(=O)N3CCOCC3)cc21)N1CCN(c2ccc(F)cc2)CC1" ?
**A:** inactive

**Q:** Short answer needed: outcome of this test for "CCOc1ccccc1C(=O)Nc1ccc2nc(N(CC)CC)cc(C)c2c1" ?
**A:** active

**Q:** Short answer needed: outcome of this test for "Cn1c(=O)c2c(nc(N3CCOCC3)n2Cc2ccccc2)n(C)c1=O" ?
**A:** inactive

**Q:** Short answer needed: outcome of this test for "CCN(CC)c1cc(C)c2cc(NC(=O)c3ccc(F)cc3Cl)ccc2n1" ?
**A:** active

**Q:** Short answer needed: outcome of this test for "COCCCNC(=O)CSc1nc2c(sc3ccccc32)c(=O)n1CCc1ccccc1" ?
**A:** inactive

**Q:** Short answer needed: outcome of this test for "COc1ccccc1N1CCN(C(=O)c2cc(-c3ccccc3O)on2)CC1" ?
**A:** inactive

**Q:** Short answer needed: outcome of this test for "CCOC(=O)Cn1c(=O)c2c(nc(N3CCOCC3)n2Cc2ccccc2)n(C)c1=O" ?
**A:** active

**Q:** Short answer needed: outcome of this test for "CCc1ccc(CN(Cc2ccco2)C(=O)c2cc(-c3ccc(Cl)cc3)on2)cc1" ?
**A:** inactive

**Q:** Short answer needed: outcome of this test for "CCOC(=O)CSc1nc2c(sc3ccccc32)c(=O)n1CCc1ccccc1" ?
**A:** inactive

**Q:** Short answer needed: outcome of this test for Cc1ccc(C)c(NC(=O)c2ccc(CN3CC(=O)N4CCCCC4C3=O)cc2)c1 (stereo not drawn) ?
**A:** inactive

**Q:** Short answer needed: outcome of this test for "CCN(CC)c1cc(C)c2cc(NC(=O)/C=C/c3ccccc3OC(C)C)ccc2n1" ?
**A:** inactive

**Q:** Short answer needed: outcome of this test for "CCN(CC)C(=O)c1cc(-c2ccccc2)on1" ?
**A:** inactive
